# System: Escherichia coli TOP10;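 further: peptides expressed intracellularly from a pBAD plasmid library in pooled LB shake-flask culture, induced with 0.3% L-arabinose, DNA abundance read by NGS, three biological replicates, DESeq2 with apeglm shrinkage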
# assay.notes: shrunken log2 fold change of peptide-encoding DNA abundance (4.5 h post-induction vs induction); higher = less antimicrobial activity (less host growth inhibition)
# applied.conditions: time post-induction: 4.5 h; library: site-saturation at positions 5, 18, 19, 20
Here, each record is paired with measured shrunken log2 fold change data.

Look up and report measured shrunken log2 fold change (Escherichia coli TOP10) for the following sequence: `RRIRPRPPRLPRPRPRPEDGPRP` 0.0827

Look up and report measured shrunken log2 fold change (Escherichia coli TOP10) for the following sequence: `RRIRERPPRLPRPRPRPMWDPRP` -0.0758

Look up and report measured shrunken log2 fold change (Escherichia coli TOP10) for the following sequence: `RRIRIRPPRLPRPRPRPDQYPRP` -0.0181

Look up and report measured shrunken log2 fold change (Escherichia coli TOP10) for the following sequence: `RRIRCRPPRLPRPRPRPESWPRP` 0.598

Look up and report measured shrunken log2 fold change (Escherichia coli TOP10) for the following sequence: `RRIRERPPRLPRPRPRPEHWPRP` 0.0984

Look up and report measured shrunken log2 fold change (Escherichia coli TOP10) for the following sequence: `RRIRHRPPRLPRPRPRPAIRPRP` -0.000964
